Entry source: PubChem BioAssay (NCI)

System: SK-MEL-5 melanoma
Experiment: NCI-60 one-dose screen, 48 h (100 = growth as untreated, 0 = no growth, -100 = all killed)
Settings: 10 µM unless noted
This is part of a sample that, as a whole, favours compounds with a hit. Of some 83,000 tested, about 20% had one in any assay.
Quick rule: growth of at least 60% means class 1, below that means class 0.

>  <molecule>
Cn1cc(-c2cc3nc(-c4cn(C)c5ncc(Br)cc45)cc(N)n3n2)c2cc(F)ccc21

>  <label.class>
class 0

$$$$
>  <molecule>
CCCCC[C@@H]1C/C=C(\C)[C@@H](O)C(C)(C)C(=O)[C@@H](C)/C=C(\C)[C@@H]2C[C@H](O)C[C@](O)(CC(=O)O1)O2

>  <label.class>
class 0

$$$$
>  <molecule>
CC(=O)C[n+]1cccc2c3ccccc3ccc21

>  <label.class>
class 0

$$$$
>  <molecule>
O=C(N=Nc1c(O)[nH]c2ccc(Cl)cc12)c1ccc2nc(-c3ccc(Cl)cc3)[nH]c2c1

>  <label.class>
class 1

$$$$
>  <molecule>
COc1cc(/C=C/C(=O)c2cnn(-c3cc(=O)[nH]c4ccccc34)c2C)cc(OC)c1OC

>  <label.class>
class 0

$$$$
>  <molecule>
Cn1cc(-c2cc(N)n3nc(-c4c[nH]c5ccccc45)cc3n2)c2ccccc21

>  <label.class>
class 0

$$$$
>  <molecule>
COc1ccc(S(=O)(=O)Nc2ccc(-c3ccc4c(c3)NC(=O)/C4=C\c3ccc[nH]3)cc2)cc1OC

>  <label.class>
class 0

$$$$
>  <molecule>
N/C(=N\c1nc2ccc([N+](=O)[O-])cc2s1)NC(=O)Nc1ccccc1Cl

>  <label.class>
class 0

$$$$
>  <molecule>
COc1ccc2[nH]c(O)c(N=NC(=O)c3ccc4nc(-c5ccc(Cl)cc5)[nH]c4c3)c2c1

>  <label.class>
class 1

$$$$
>  <molecule>
O=C(CSc1nc2sc3c(c2c(=O)n1-c1ccc(Cl)cc1)CCCC3)NNC(=O)c1ccc(F)cc1

>  <label.class>
class 1

$$$$
>  <molecule>
CCOc1ccccc1[C@H]1C(C(=O)c2ccc(Cl)cc2)C2(N[C@@H]1c1ccccc1)C(=O)Nc1ccc(Br)cc12 (some centres undefined)

>  <label.class>
class 0

$$$$
>  <molecule>
COc1ccc(N=Nc2c(N)nn3c(-c4cc5cc(Br)ccc5oc4=O)ccnc23)cc1

>  <label.class>
class 0

$$$$
>  <molecule>
Cc1nc(N)ncc1-c1ccc2ncnc(N3CCc4cc(F)c(Cl)cc43)c2c1

>  <label.class>
class 1

$$$$
>  <molecule>
O=C(Nc1ccc(S(=O)(=O)N2CCCCC2)cc1)C(Cl)Cl

>  <label.class>
class 1

$$$$
>  <molecule>
Cc1ccc(C(=O)Nc2cc(-c3ccccc3)cc(C(F)(F)F)c2)cc1C#Cc1cnc2cccnn12

>  <label.class>
class 0

$$$$
>  <molecule>
c1ccc(CSc2nnc(-c3ccc4nc(-c5ccccc5)[nH]c4c3)o2)cc1

>  <label.class>
class 0

$$$$
>  <molecule>
N#Cc1c(-c2ccc(F)cc2)nc(SCc2ccc(F)cc2)nc1N1CCNCC1

>  <label.class>
class 0

$$$$
>  <molecule>
O=C1NC(=S)/C(=C/c2cn(-c3ccccc3)nc2-c2ccccc2)S1

>  <label.class>
class 0

$$$$
>  <molecule>
CCOc1ccc(-c2cc(-c3cc(C(C)C)c(O)cc3C)nn2-c2ccc(S(N)(=O)=O)cc2)cc1

>  <label.class>
class 0

$$$$
